- Test system: A. brasiliensis
- procedure_summary: Minimum inhibitory concentration (MIC) in Mueller-Hinton broth, pH 7.4
- Format: cell-based, Aspergillus brasiliensis
- Experimental: This example illustrates the preparation of testing parameters for antimicrobial activity of components of the inventive composition and related compositions for comparison. […] Microbes were grown on Mueller-Hinton agar (MHA, Sigma-Aldrich, St. Louis, Mo.) for 7 days until heavy sporulation was present. Spores from two agar plates were captured in sterile phosphate-buffered saline (PBS) using a sterile swab. […] A typical spore stock was determined to contain ˜2×10^7 spores/mL. […]
quantity_kind: MIC (wt %)
Form entry: value (wt %) — number only.

// below: answered compounds
Under A. brasiliensis: report MIC of `CC(=O)O` . 0.2

Return reported MIC for target or system A. brasiliensis, item O=C(CCCCCCC(=O)NO)NO [Suberohydroxamic acid] . 0.5

Give MIC; test system A. brasiliensis; compound CCCCCCCC(=O)NO [Caprylhydroxamic acid (CHA), Caprylhydroxamic acid] 0.03

Please report the measured MIC for Cl.NOCc1ccccc1 [O-benzylhydroxylamine HCl] tested on A. brasiliensis. 0.2

# return MIC of `CCO` (system: A. brasiliensis) 0.47

Next:
Provide MIC, tested on A. brasiliensis, for Cl.NOc1ccccc1 [O-phenylhydroxylamine HCl] . 0.06

State, for A. brasiliensis, measured MIC of the compound listed here: O=C(NO)c1ccccc1 [Benzhydroxamic acid 1, Benzhydroxamic acid] 0.02

Write down the reported MIC (system: A. brasiliensis) of Cl.ONCc1ccccc1 [N-benzylhydroxylamine HCl] 0.2

Consider the compound `CCCCCCCC(=O)O` tested on A. brasiliensis; state its MIC. 0.5

Please indicate recorded MIC of CC(=O)NO [Acetohydroxamic acid] measured with A. brasiliensis. 0.5

// fetch MIC for CC(C)(C)ON.Cl [O-tert-butylhydroxylamine HCl] ; system: A. brasiliensis 0.5

----------
- Tested on: C. albicans
- procedure_summary: Minimum inhibitory concentration (MIC) in Mueller-Hinton broth, pH 7.4
- Assay type: cell-based, Candida albicans
Below, each of the compounds is paired with its reported MIC value.
Return type: number; implicit unit wt %.

Return the recorded MIC value; entry: `OCc1ccccc1` 0.5

Return reported MIC. Input compound: CC(C)(C)ON.Cl [O-tert-butylhydroxylamine HCl] 0.5

Give the reported MIC for this compound. CON.Cl [O-methylhydroxylamine HCl] 0.5

Determine from records and report MIC for `CCCCCCCC(=O)O` 0.5

Identify measured MIC corresponding to `CC(C)(C)O` 0.5

Indicate its recorded MIC; the compound in question is CC(=O)NO [Acetohydroxamic acid] 0.2

More entries:
# return recorded MIC for input `CO` 20

Provide MIC value for the following compound: CCON.Cl [O-ethylhydroxylamine HCl] 0.2

----------
- Test system: A. brasiliensis
- procedure_summary: Minimum inhibitory concentration (MIC) in Mueller-Hinton broth, pH 7.4
- Assay type: cell-based, Aspergillus brasiliensis
quantity_kind: MIC (wt %)
Just the number in wt %, nothing appended.

Worked examples follow.
Give me measured MIC, please, for this compound: CON.Cl [O-methylhydroxylamine HCl] 0.1

Name the recorded MIC of the compound listed here: `O=C(O)c1ccccc1` 0.2

Note MIC for the compound shown: `OCc1ccccc1` 0.5

Retrieve MIC measured for CCON.Cl [O-ethylhydroxylamine HCl] and print it. 0.1

Given `O=C(O)c1ccccc1O` , respond with its MIC. 0.5

Could you please provide reported MIC for `Oc1ccccc1` ? Thanks! 0.1

Please find the next compound below.
In one line, give reported MIC of the entry `CO` . 0.5
